biological target: human P450 51A1 (Homo sapiens, UniProt Q16850); assay: Single-turnover rapid-quench kinetics of [3-3H]-dihydrolanosterol oxidation (radio-HPLC); type: biochemical; set-up: made in house; host or cells: Escherichia coli; conditions: time 4 s
Sequence (Q16850 whole entry): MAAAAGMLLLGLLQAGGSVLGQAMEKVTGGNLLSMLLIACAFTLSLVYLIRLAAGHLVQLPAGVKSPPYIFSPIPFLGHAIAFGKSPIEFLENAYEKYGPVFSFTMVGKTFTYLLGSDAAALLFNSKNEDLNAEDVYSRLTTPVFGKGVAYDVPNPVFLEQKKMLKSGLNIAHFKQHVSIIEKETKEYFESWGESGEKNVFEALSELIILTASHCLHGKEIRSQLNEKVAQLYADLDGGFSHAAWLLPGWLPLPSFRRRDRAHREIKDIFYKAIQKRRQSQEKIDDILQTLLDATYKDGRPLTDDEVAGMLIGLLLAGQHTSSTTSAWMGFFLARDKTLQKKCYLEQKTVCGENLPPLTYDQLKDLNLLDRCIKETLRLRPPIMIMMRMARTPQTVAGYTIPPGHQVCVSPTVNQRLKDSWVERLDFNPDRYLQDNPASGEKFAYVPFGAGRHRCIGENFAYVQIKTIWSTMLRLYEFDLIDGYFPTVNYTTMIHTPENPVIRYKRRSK
parameter: concentration in single-turnover reaction (µM)
Answer in µM, number only, no unit symbol.

CC(C)CCCC(C)[C@H]1CC[C@@]2(C=O)C3=C(CC[C@]12C)[C@@]1(C)CC[C@H](O)C(C)(C)C1CC3 (stereo partly drawn) [14α-CHO dihydrolanosterol, 24,25-dihydro-14α-formyl lanosterol] :: 0
CC(C)CCC[C@@H](C)[C@H]1CC=C2C3=C(CC[C@@]21C)[C@@]1(C)CC[C@H](O)C(C)(C)[C@@H]1CC3 [dihydro FF-MAS, 24,25-dihydro FF-MAS] :: 6.6353
CC(C)CCCC(C)[C@H]1CC[C@@]2(CO)C3=C(CC[C@]12C)[C@@]1(C)CC[C@H](O)C(C)(C)C1CC3 (stereo partly drawn) [14α-CH2OH dihydrolanosterol, 24,25-dihydro-14α-CH2OH lanosterol] :: 0

Which value of concentration in single-turnover reaction has been reported for CC(C)CCCC(C)[C@H]1CC[C@@]2(C)C3=C(CC[C@]12C)[C@@]1(C)CC[C@H](O)C(C)(C)C1CC3 (stereo partly shown) [dihydrolanosterol, 24,25-dihydrolanosterol] in the records?
0.3647
